- test.target: Glutaminase(Brain) (Mus musculus)
- Sequence (D3Z7P3 55-674): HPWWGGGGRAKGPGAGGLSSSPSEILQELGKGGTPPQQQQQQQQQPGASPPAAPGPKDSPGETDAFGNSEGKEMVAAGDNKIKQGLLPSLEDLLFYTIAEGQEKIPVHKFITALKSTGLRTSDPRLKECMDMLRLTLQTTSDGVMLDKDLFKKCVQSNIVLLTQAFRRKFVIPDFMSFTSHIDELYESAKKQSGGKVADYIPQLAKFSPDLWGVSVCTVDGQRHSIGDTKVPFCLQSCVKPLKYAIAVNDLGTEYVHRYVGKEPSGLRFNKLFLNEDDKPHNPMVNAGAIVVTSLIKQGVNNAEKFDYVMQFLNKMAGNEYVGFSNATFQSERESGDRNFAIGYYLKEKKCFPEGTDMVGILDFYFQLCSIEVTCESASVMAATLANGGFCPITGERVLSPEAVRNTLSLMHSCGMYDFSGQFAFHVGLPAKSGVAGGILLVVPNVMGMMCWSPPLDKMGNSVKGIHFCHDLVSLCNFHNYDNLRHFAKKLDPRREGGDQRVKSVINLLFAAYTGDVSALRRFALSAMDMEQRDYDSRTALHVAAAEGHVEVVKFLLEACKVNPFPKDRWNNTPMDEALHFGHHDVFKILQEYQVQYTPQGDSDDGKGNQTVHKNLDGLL
- test.description: Glutaminase enzyme activity using glutaminase enzyme from mice brain/kidney homogenate (Nessler's reagent, ammonia)
- Assay type: biochemical
- settings: 1 μM; mice brain homogenate; read-out: Glutaminase(Brain) activity % inhibition @1 μM
Recorded inhibition at 1 µM for the following compounds

Below, 10 compounds whose answers are already recorded.
O=C(Cc1ccccn1)Nc1ccc(N2CCC(c3nnc(NC(=O)Cc4cccc(OC(F)(F)F)c4)s3)CC2)cn1 :: < 25%
O=C(Cc1cccc(OC(F)(F)F)c1)Nc1ccc(N2CCC(c3nnc(NC(=O)Cc4c[nH]c5ccccc45)s3)CC2)nn1 :: 50 to 75%
O=C(Cc1ccccn1)Nc1ccc(N2CCC(c3nnc(NC(=O)Cc4ccc(Cl)cc4)s3)CC2)nn1 :: 75 to 100%
O=C(Cc1ccccc1F)Nc1ccc(N2CCC(c3nnc(NC(=O)Cc4ccccn4)s3)CC2)nn1 :: 75 to 100%
O=C(Cc1ccccn1)Nc1ccc(N2CCC(c3nnc(NC(=O)Cc4ccc(F)cc4)s3)CC2)nn1 :: 75 to 100%
O=C(Cc1cccc(OC(F)(F)F)c1)Nc1ccc(N2CCC(c3nnc(NC(=O)Cc4cnccn4)s3)CC2)nn1 :: 75 to 100%
COc1ccccc1CC(=O)Nc1nnc(C2CCN(c3ccc(NC(=O)Cc4ccccn4)nn3)CC2)s1 :: 75 to 100%
O=C(Cc1ccccn1)Nc1ccc(N2CCC(c3nnc(NC(=O)Cc4cc(Cl)ccc4C(F)(F)F)s3)CC2)nn1 :: 50 to 75%
O=C(Cc1ccccn1)Nc1ccc(N2CCC(c3nnc(NC(=O)Cc4ccccc4Cl)s3)CC2)nn1 :: 75 to 100%
O=C(Cc1ccccn1)Nc1ccc(N2CCC(c3nnc(NC(=O)Cc4ccc(F)c(F)c4)s3)CC2)nn1 :: 75 to 100%

Glutaminase(Brain) (Mus musculus) data for O=C(Cc1ccccn1)Nc1ccc(N2CCC(c3nnc(NC(=O)Cc4cccc(Cl)c4)s3)CC2)nn1 ; its inhibition at 1 µM: 75 to 100%

Measured on Glutaminase(Brain) (Mus musculus), O=C(Cc1ccccn1)Nc1ccc(N2CCC(c3nnc(NC(=O)Cc4cccc(F)c4)s3)CC2)nn1 has a documented inhibition at 1 µM of 75 to 100%

Entry O=C(Cc1cccc(OC(F)(F)F)c1)Nc1ccc(N2CCC(c3nnc(NC(=O)Cc4cccnc4)s3)CC2)nn1 , Glutaminase(Brain) (Mus musculus) data, inhibition at 1 µM value: 75 to 100%

Observed inhibition at 1 µM, Glutaminase(Brain) (Mus musculus), O=C(Cc1ccccn1)Nc1ccc(N2CCC(c3nnc(NC(=O)Cc4c(F)ccc(F)c4F)s3)CC2)nn1 : 50 to 75%

Param item: O=C(Cc1ccccc1Cl)Nc1ccc(N2CCC(c3nnc(NC(=O)Cc4ccccn4)s3)CC2)nn1 ; param system: Glutaminase(Brain) (Mus musculus); output inhibition at 1 µM: 75 to 100%

----------
- test.target: Glutaminase(Brain) (Mus musculus)
- test.description: Glutaminase enzyme activity using glutaminase enzyme from mice brain/kidney homogenate (Nessler's reagent, ammonia)
- Format: biochemical
- settings: 0.1 μM; mice brain homogenate; read-out: Glutaminase(Brain) activity % inhibition 0.1 μM
assay.endpoint: inhibition at 0.1 µM

COc1ccccc1CC(=O)Nc1nnc(C2CCN(c3ccc(NC(=O)Cc4ccccn4)nn3)CC2)s1 :: 50 to 75%
O=C(Cc1cccc(OC(F)(F)F)c1)Nc1ccc(N2CCCC(c3nnc(NC(=O)Cc4ccccn4)s3)C2)cn1 (single isomer, unassigned) [Example 2A] :: < 25%
O=C(Cc1cccc(OC(F)(F)F)c1)Nc1ccc(N2CCCC(c3nnc(NC(=O)Cc4ccccn4)s3)C2)cn1 (racemic) [Example 2] :: < 25%
O=C(Cc1ccccc1F)Nc1ccc(N2CCC(c3nnc(NC(=O)Cc4cnccn4)s3)CC2)nn1 :: 25 to 50%
O=C(Cc1ccccn1)Nc1ccc(N2CCC(c3nnc(NC(=O)Cc4ccc(Cl)cc4)s3)CC2)nn1 :: 50 to 75%

Lab note: next compound to report on.
Reported inhibition at 0.1 µM of O=C(Cc1ccccn1)Nc1ccc(N2CCC(c3nnc(NC(=O)Cc4ccc(F)cc4)s3)CC2)nn1 : 50 to 75%
